Numbers sourced from BindingDB's records for doi:10.1016/j.bmcl.2016.03.078.

# System Name: E3 ubiquitin-protein ligase Mdm2 (Homo sapiens)
# Sequence (Q00987 whole entry, the tested form may be a part): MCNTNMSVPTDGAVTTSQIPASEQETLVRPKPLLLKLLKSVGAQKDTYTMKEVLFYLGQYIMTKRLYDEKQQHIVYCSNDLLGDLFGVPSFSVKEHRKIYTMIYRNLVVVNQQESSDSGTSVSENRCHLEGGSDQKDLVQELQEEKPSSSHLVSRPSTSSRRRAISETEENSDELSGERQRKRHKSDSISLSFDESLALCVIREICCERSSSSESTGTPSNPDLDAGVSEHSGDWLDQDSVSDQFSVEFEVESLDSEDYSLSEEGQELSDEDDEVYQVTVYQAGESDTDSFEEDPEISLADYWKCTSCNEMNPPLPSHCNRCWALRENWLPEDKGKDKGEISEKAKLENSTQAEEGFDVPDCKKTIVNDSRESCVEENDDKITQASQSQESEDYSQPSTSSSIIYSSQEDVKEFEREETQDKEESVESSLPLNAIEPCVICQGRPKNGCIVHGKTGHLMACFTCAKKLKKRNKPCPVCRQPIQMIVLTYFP
# Method: Displacement of Ac-Phe-Arg-Dpr(fluorophore)-Ac6c-(6-Br)Trp-Glu-Glu-Leu-NH2 from human N-terminal His6-tagged MDM2 (17 to 125 residues) expressed in Escherichia coli by fluorescence polarization assay
Result Type: IC50 (nM)
Record the value in nM, omitting the unit from your answer.

Input: IC50 for O=C(c1cnccc1C(F)(F)F)N1CCCC(Oc2ccc(C(F)(F)F)cc2)(C(=O)N2CCN(c3ccccn3)CC2)C1 (stereo unspecified) ?
Output: 2300
